Assignment: determine reported Degradation rates of the AR protein in LNCAP cells, 100 nM (%) for the given compounds.
- target.or.system: AR protein (Homo sapiens, UniProt P10275, T878A)
- Construct: host or cells: LNCaP FGC
- Sequence (P10275 whole entry T878A): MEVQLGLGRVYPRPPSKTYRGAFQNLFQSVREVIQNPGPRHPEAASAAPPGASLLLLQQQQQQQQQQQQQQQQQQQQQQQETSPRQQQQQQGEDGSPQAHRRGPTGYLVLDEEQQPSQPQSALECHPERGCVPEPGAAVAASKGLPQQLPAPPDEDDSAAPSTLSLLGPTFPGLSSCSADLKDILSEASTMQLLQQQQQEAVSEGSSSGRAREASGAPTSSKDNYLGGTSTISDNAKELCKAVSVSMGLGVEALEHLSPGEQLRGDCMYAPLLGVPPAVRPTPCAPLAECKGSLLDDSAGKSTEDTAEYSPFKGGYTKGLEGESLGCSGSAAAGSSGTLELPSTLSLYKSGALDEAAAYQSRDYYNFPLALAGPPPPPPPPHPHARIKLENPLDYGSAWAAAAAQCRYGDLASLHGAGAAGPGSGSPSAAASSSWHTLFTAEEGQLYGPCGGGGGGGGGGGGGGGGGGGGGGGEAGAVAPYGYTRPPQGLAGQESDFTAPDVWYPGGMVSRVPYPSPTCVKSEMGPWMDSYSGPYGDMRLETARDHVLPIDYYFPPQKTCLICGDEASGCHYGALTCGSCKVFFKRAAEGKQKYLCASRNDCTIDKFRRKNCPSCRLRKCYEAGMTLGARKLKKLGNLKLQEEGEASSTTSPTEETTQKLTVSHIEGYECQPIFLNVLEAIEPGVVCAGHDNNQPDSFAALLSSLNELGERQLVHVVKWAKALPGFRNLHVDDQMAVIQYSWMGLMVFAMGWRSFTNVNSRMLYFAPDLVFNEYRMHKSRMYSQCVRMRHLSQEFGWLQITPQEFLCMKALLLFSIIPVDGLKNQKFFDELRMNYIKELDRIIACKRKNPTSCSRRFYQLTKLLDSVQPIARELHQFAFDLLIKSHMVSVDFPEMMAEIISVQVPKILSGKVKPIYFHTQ
- method.description: Degradation of AR protein in LNCAP cells (Western blot, 8 h)
- Format: cell-based
- conditions: LNCaP FGC cells, 100 nM
One number for each entry, in %.

# compound, target.or.system, result.units, readout.value
rows = [
    ("C[C@H]1CC2(CCN(c3ccc(N4CCC(CN5CCC6(CC5)COc5c6ccc6c5C(=O)N(C5CCC(=O)NC5=O)C6)CC4)cc3)CC2)CN1c1ccc(C#N)c(Cl)c1 (some centres unmarked) [2-103]", "AR protein (Homo sapiens, UniProt P10275, T878A)", "%", 79),
    ("COc1cc(O[C@H]2C(C)(C)[C@H](NC(=O)c3ccc(N4CCC(C)(CN5CCC6(CC5)COc5c6ccc6c5C(=O)N(C5CCC(=O)NC5=O)C6)CC4)cc3)C2(C)C)ccc1C#N (relative stereo) [2-292]", "AR protein (Homo sapiens, UniProt P10275, T878A)", "%", 78),
    ("COc1cc(O[C@H]2C(C)(C)[C@H](NC(=O)c3ccc(N4CCC(CN5CCC6(CC5)COc5c6ccc6c5C(=O)N(C5CCC(=O)NC5=O)C6)CC4)cc3)C2(C)C)ccc1C#N (relative stereo) [2-318]", "AR protein (Homo sapiens, UniProt P10275, T878A)", "%", 73),
]

Give one value of Degradation rates of the AR protein in LNCAP cells, 100 nM (%) per listed compound.
1. N#Cc1ccc(O[C@H]2CC[C@H](NC(=O)c3ccc(N4CCC(CN5CCC6(CC5)COc5c6ccc6c5C(=O)N(C5CCC(=O)NC5=O)C6)CC4)nn3)CC2)cc1Cl (relative stereo) [2-313]
2. COc1cc(O[C@H]2CC[C@H](NC(=O)c3ccc(N4CCC(CN5CCC6(CC5)COc5c6ccc6c5C(=O)N(C5CCC(=O)NC5=O)C6)CC4)nn3)CC2)ccc1C#N (relative stereo) [2-314]

1. 79
2. 76
